Target: T1, ADCY9 meganuclease (I-CreI-derived) (Artificial Sequence)
T1 chain: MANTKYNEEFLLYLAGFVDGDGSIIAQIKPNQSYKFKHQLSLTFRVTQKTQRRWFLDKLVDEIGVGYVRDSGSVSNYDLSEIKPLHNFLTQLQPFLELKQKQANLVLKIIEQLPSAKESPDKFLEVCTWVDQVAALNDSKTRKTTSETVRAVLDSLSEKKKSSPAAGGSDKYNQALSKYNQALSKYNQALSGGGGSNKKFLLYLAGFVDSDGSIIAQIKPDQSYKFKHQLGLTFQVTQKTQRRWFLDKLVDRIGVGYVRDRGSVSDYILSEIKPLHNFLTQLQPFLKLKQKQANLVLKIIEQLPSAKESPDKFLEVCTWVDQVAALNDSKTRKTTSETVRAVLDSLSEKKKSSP
Assay: FP; 10 mM CaCl2, 150 mM NaCl, pH8, 25 C
result-type: pKd
Would you please state pKd, meaning minus log10 of the concentration in mol/L, as a bare number?

-- ask Tell me its pKd given ADCY9.1 (dsDNA) DNA 1: CCCAGATGTCGTACAGCAGCTTGG DNA 2: CCAAGCTGCTGTACGACATCTGGG as the entry.
-- reply 6.72
